Listed here: items and their measured phosphorylation enrichment.
test system: AncSZ; assay: phosphorylation enrichment, bacterial display (enrichment ratio); higher = better substrate or ligand; peptides without Tyr show the background;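 note: 11-residue human phosphosite peptides and single-mutation variants displayed on the E. coli surface, counted by deep sequencing, each peptide's frequency after selection divided by its frequency in the unselected input library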;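 note: frequency after pTyr selection over input frequency; kinase dosed for 20-30% of maximal phosphorylation in three min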

Take a look at these entries with their results.
KLVDVYVNDAF [PGK1_Y161_G158V] :: 0.895
INQGPYENRSV [ATP6V1B1_Y462] :: 0.558
QLHEHYKIHKE [NSMAF_Y626] :: 0.748

Exam item: Given PVQAAYPKVVA [HBB_Y131_Q132P] , state its recorded phosphorylation enrichment.
Marked response: 0.706

====

target: EPHB2 (UniProt P29323); assay: phosphorylation enrichment, bacterial display (enrichment ratio); higher = better substrate or ligand; peptides without Tyr show the background
Sequence (P29323 whole entry, looked up): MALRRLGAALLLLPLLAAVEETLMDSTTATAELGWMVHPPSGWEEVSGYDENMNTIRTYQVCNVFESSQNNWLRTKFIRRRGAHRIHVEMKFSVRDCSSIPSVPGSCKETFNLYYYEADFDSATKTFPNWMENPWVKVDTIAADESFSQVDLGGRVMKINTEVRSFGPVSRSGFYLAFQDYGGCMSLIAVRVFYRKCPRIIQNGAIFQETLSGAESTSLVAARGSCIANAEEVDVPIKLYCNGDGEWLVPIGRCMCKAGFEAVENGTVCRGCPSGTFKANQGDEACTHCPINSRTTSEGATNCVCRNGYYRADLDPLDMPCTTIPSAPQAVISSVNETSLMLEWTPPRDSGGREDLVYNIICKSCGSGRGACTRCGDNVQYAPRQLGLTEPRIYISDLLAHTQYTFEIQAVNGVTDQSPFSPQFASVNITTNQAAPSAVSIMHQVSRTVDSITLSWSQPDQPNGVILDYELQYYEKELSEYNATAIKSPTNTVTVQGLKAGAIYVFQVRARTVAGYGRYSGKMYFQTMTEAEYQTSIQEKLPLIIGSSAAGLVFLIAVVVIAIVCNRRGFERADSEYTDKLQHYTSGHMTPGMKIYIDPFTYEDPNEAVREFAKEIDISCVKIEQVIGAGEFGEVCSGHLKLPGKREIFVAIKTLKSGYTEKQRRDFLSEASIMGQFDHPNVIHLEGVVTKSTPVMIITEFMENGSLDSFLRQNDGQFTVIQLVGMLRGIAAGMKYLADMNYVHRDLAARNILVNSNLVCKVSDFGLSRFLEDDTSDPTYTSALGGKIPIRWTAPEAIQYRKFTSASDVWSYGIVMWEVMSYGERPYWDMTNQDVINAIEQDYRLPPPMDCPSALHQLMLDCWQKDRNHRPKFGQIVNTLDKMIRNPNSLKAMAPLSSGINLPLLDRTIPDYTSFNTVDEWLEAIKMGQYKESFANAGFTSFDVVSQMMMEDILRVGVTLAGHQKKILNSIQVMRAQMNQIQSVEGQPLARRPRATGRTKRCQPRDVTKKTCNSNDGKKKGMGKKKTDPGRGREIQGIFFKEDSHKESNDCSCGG
measure.name: phosphorylation enrichment
Give only the figure.

LKTNWYNNGKD [DNMT3B_Y404_C403W] :: 0.688
SRIWVYNHYRW [BRCA2_Y2621] :: 0.466
RYLKDYGEFEV [GINS1_Y156_C152Y] :: 0.839
FCRHNYGAVES [HLA-DRB1_Y112_V114A_YF] :: 0.555
CGTPTCLAPEV [CHEK2_Y390_Y390C] :: 0.695

Exam item: Given FHLLPYTIRAM [PARS2_Y93_V95I_YF] , state its recorded phosphorylation enrichment.
Marked response: 0.588

Exam item: Given IEPVIYVVQRR [ANOS1_Y217] , state its recorded phosphorylation enrichment.
Marked response: 0.486

Exam item: Given LEQQKYTVTID [IKBKB_Y199_V203I] , state its recorded phosphorylation enrichment.
Marked response: 0.81

Exam item: Given NVVQEYERVII [NPHS2_Y131_K126N] , state its recorded phosphorylation enrichment.
Marked response: 2.22

Exam item: Given SNPAFYVLEGV [INPPL1_Y987_N982S_YF] , state its recorded phosphorylation enrichment.
Marked response: 0.559

Exam item: Given WFQTKYEELQV [KRT6B_Y360_I365V_YF] , state its recorded phosphorylation enrichment.
Marked response: 0.525

Exam item: Given RFLKDYGEFEV [GINS1_Y156_C152Y_YF] , state its recorded phosphorylation enrichment.
Marked response: 0.569

Exam item: Given LDFNEYFRGLN [HPRT1_Y198_D201G_YF] , state its recorded phosphorylation enrichment.
Marked response: 1.41

Exam item: Given CNPLRYPVLMS [OR2T1_Y182] , state its recorded phosphorylation enrichment.
Marked response: 0.567

Exam item: Given DLEKTYNTFRS [B4GALNT2_Y538_A533D_YF] , state its recorded phosphorylation enrichment.
Marked response: 0.319

Exam item: Given WEPFGFAVTRC [PTPRT_Y412_Y412F] , state its recorded phosphorylation enrichment.
Marked response: 0.653

Exam item: Given LPENPYHSRPR [NDUFA8_Y142] , state its recorded phosphorylation enrichment.
Marked response: 0.41

Exam item: Given VQVAYYTMMMN [SPATA17_Y84] , state its recorded phosphorylation enrichment.
Marked response: 1.17

Exam item: Given EQYELHCEMGS [CBL_Y371_Y371H] , state its recorded phosphorylation enrichment.
Marked response: 0.63

====

tested on: c-Abl (mouse); assay: phosphorylation enrichment, bacterial display (enrichment ratio); higher = better substrate or ligand; peptides without Tyr show the background
Listed here: items and their measured phosphorylation enrichment.
Give only the figure.

IRTIDYRFTVS [IDS_Y497_W502S_YF] :: 0.989
PVGVLYEVKVY [PTS_Y128_K129E] :: 2.37
KMTGRYEMFAR [UPB1_Y362_YF] :: 0.571

Exam item: Given NVVNEYSSELE [FGB_Y172] , state its recorded phosphorylation enrichment.
Marked response: 0.717

Exam item: Given WGTAEYDSVVA [MAP1A_Y1883] , state its recorded phosphorylation enrichment.
Marked response: 0.703

Exam item: Given PDSVDYRKKGY [CTSK_Y121] , state its recorded phosphorylation enrichment.
Marked response: 0.976

Exam item: Given LEQQKYTVTID [IKBKB_Y199_V203I] , state its recorded phosphorylation enrichment.
Marked response: 0.696

Exam item: Given MARDISRASFF [ALK_Y1278_Y1278S_YF] , state its recorded phosphorylation enrichment.
Marked response: 0.545

Exam item: Given TNLVPYPRIHF [TUBA1A_Y262] , state its recorded phosphorylation enrichment.
Marked response: 0.781

Exam item: Given KIMVIYDGACQ [VWDE_Y1035_T1032M] , state its recorded phosphorylation enrichment.
Marked response: 0.965

Exam item: Given HLMLQYDAVVN [SLC25A32_Y152_R147H] , state its recorded phosphorylation enrichment.
Marked response: 1.08

Exam item: Given LDAFIYDAAVL [GRIN2A_Y730] , state its recorded phosphorylation enrichment.
Marked response: 6.28

Exam item: Given WEPFGFAVTRC [PTPRT_Y412_Y412F] , state its recorded phosphorylation enrichment.
Marked response: 1

Exam item: Given LPENPYHSRPR [NDUFA8_Y142] , state its recorded phosphorylation enrichment.
Marked response: 0.761

Exam item: Given SPLTDYSPQLQ [OTC_Y345_L341P] , state its recorded phosphorylation enrichment.
Marked response: 0.661

Exam item: Given AIIEEYLHLND [EIF4G1_Y1253] , state its recorded phosphorylation enrichment.
Marked response: 0.585
